test system: CT26; assay: Cytotoxicity in mouse CT26 cells assessed as reduction in cell viability incubated for 96 hrs by SRB assay; format: functional, cell-based; conditions: CT26, 96 h
quantity-name: pIC50
Quick note: pIC50 means taking -log10 of the concentration in moles per liter.

pIC50 of `COC(=O)[C@@]1(C)CC[C@]2(C)CC[C@]3(C)C(=CC(=O)[C@@H]4[C@@]5(C)Cc6cn(OC(C)=O)nc6C(C)(C)[C@@H]5CC[C@]43C)[C@H]2C1` on CT26?
4.48

pIC50 of `COC(=O)[C@@]1(C)CC[C@]2(C)CC[C@]3(C)C(=CC(=O)[C@@H]4[C@@]5(C)Cc6cn(S(C)(=O)=O)nc6C(C)(C)[C@@H]5CC[C@]43C)[C@H]2C1` on CT26?
4.82

pIC50 of `CCOC(=O)c1[nH]nc2c1C[C@]1(C)[C@H]3C(=O)C=C4[C@H]5C[C@@](C)(C(=O)OCc6ccccc6)CC[C@]5(C)CC[C@@]4(C)[C@]3(C)CC[C@H]1C2(C)C` on CT26?
4.75

pIC50 of `COC(=O)[C@@]1(C)CC[C@]2(C)CC[C@]3(C)C(=CC(=O)[C@@H]4[C@@]5(C)Cc6cn(C(=O)CCCC7CCNCC7)nc6C(C)(C)[C@@H]5CC[C@]43C)[C@H]2C1` on CT26?
5.09

pIC50 of `CC1(C)[C@@H](O)CC[C@]2(C)[C@H]3C(=O)C=C4[C@H]5C[C@@](C)(C(=O)O)CC[C@]5(C)CC[C@@]4(C)[C@]3(C)CC[C@@H]12` on CT26?
4.15

###

test system: T-ALL; test: Cytotoxicity in human T-ALL cells assessed as reduction in cell viability; format: functional, cell-based
quantity-name: IC50

State the recorded IC50 for this entry: `CC1=C(O)C(=O)C=C2C1=CC=C1[C@@]2(C)CC[C@@]2(C)[C@@H]3C[C@](C)(C(=O)O)CC[C@]3(C)CC[C@]12C`
< 1000 nM

###

Assignment: determine reported pIC50 for the given compounds.
test system: A549; experiment: Cytotoxicity in human A549 cells assessed as reduction in cell viability incubated for 48 hrs by MTT assay; type: functional, cell-based; conditions: A549, 48 h
Quick note: pIC50 means taking -log10 of the concentration in moles per liter.

State the recorded pIC50 for this entry: CCOP(=O)(OCC)C(NC(=O)[C@]12CC[C@@H](C)[C@H](C)[C@H]1C1=CC[C@@H]3[C@@]4(C)C[C@@H](OC(C)=O)[C@H](OC(C)=O)[C@@](C)(COC(C)=O)[C@@H]4CC[C@@]3(C)[C@]1(C)CC2)c1cccc2ccccc12 (stereo partly specified)
4.26

State the recorded pIC50 for this entry: CCOP(=O)(OCC)C(NC(=O)[C@]12CC[C@@H](C)[C@H](C)[C@H]1C1=CC[C@@H]3[C@@]4(C)C[C@@H](OC(C)=O)[C@H](OC(C)=O)[C@@](C)(COC(C)=O)[C@@H]4CC[C@@]3(C)[C@]1(C)CC2)c1ccc2ccccc2c1 (stereo partly specified)
4.33

State the recorded pIC50 for this entry: `O=c1[nH]cc(F)c(=O)[nH]1`
4.46

State the recorded pIC50 for this entry: CCOP(=O)(OCC)C(NC(=O)[C@]12CC[C@@H](C)[C@H](C)[C@H]1C1=CC[C@@H]3[C@@]4(C)C[C@@H](OC(C)=O)[C@H](OC(C)=O)[C@@](C)(COC(C)=O)[C@@H]4CC[C@@]3(C)[C@]1(C)CC2)c1ccccc1Cl (stereo partly specified)
4.83

State the recorded pIC50 for this entry: CCOP(=O)(OCC)C(NC(=O)[C@]12CC[C@@H](C)[C@H](C)[C@H]1C1=CC[C@@H]3[C@@]4(C)C[C@@H](OC(C)=O)[C@H](OC(C)=O)[C@@](C)(COC(C)=O)[C@@H]4CC[C@@]3(C)[C@]1(C)CC2)c1ccc(Cl)cc1 (stereo partly specified)
4.80

State the recorded pIC50 for this entry: `C[C@H]1[C@H](C)CC[C@]2(C(=O)O)CC[C@]3(C)C(=CC[C@@H]4[C@@]5(C)C[C@@H](O)[C@H](O)[C@@](C)(CO)[C@@H]5CC[C@]43C)[C@H]12`
4.42

###

Assignment: determine reported pIC50 for the given molecules.
tested on: HeLa; assay: Cytotoxicity in human HeLa cells assessed as reduction in cell viability incubated for 72 hrs by CCK8 assay; format: functional, cell-based
Quick note: pIC50 means taking -log10 of the concentration in moles per liter.

pIC50 of COC(=O)C1CCCN1C(=O)[C@]12CC[C@@H](C)[C@H](C)[C@H]1C1=CC[C@@H]3[C@@]4(C)C[C@@H](OC(C)=O)[C@H](OC(C)=O)[C@@](C)(COC(C)=O)[C@@H]4CC[C@@]3(C)[C@]1(C)CC2 (stereo partly specified) on HeLa?
5.32

pIC50 of COC(=O)C1CCCN1C(=O)[C@]12CC[C@@H](C)[C@H](C)[C@H]1C1=CC[C@@H]3[C@@]4(C)C[C@@H](O)[C@H](O)[C@@](C)(CO)[C@@H]4CC[C@@]3(C)[C@]1(C)CC2 (stereo partly specified) on HeLa?
4.67

pIC50 of `CC(=O)OC[C@@]1(C)[C@@H]2CC[C@]3(C)[C@H](CC=C4[C@@H]5[C@@H](C)[C@H](C)CC[C@]5(C(=O)O)CC[C@]43C)[C@@]2(C)C[C@@H](OC(C)=O)[C@@H]1OC(C)=O` on HeLa?
4.62

pIC50 of COC(=O)C(C)NC(=O)[C@]12CC[C@@H](C)[C@H](C)[C@H]1C1=CC[C@@H]3[C@@]4(C)C[C@@H](O)[C@H](O)[C@@](C)(CO)[C@@H]4CC[C@@]3(C)[C@]1(C)CC2 (stereo partly specified) on HeLa?
4.72

pIC50 of COC(=O)C(C)NC(=O)[C@]12CC[C@@H](C)[C@H](C)[C@H]1C1=CC[C@@H]3[C@@]4(C)C[C@@H](OC(C)=O)[C@H](OC(C)=O)[C@@](C)(COC(C)=O)[C@@H]4CC[C@@]3(C)[C@]1(C)CC2 (stereo partly specified) on HeLa?
5.29

###

test system: HL-60; test: Cytotoxicity in human HL60 cells assessed as reduction in cell viability incubated for 24 hrs by MTT assay; type: functional, cell-based; details: HL-60, 24 h
Assignment: determine reported pIC50 for the given molecules.
Quick note: pIC50 means taking -log10 of the concentration in moles per liter.

State the recorded pIC50 for this entry: `COC(=O)[C@]12CCC(C)(C)C[C@H]1C1=CC(=O)[C@@H]3[C@@]4(C)CC/C(=N\O)C(C)(C)[C@@H]4CC[C@@]3(C)[C@]1(C)CC2`
5.43

State the recorded pIC50 for this entry: `CCC(=O)O[C@H]1CC[C@@]2(C)[C@@H](CC[C@]3(C)[C@@H]2CC=C2[C@@H]4[C@@H](C)[C@H](C)CC[C@]4(C)CC[C@]23C)[C@@]1(C)C(=O)O`
4.85

State the recorded pIC50 for this entry: CC1(C)CC[C@]2(C(=O)O)CC[C@]3(C)C(=CC[C@@H]4[C@@]5(C)CC[C@H](O)C(C)(C)[C@@H]5CC[C@]43C)[C@@H]2C1 [OLEANOLIC_ACID]
4.83

State the recorded pIC50 for this entry: `COC(=O)[C@]12CCC(C)(C)C[C@H]1C1=CC(=O)[C@@H]3[C@@]4(C)CCC(=O)C(C)(C)[C@@H]4CC[C@@]3(C)[C@]1(C)CC2`
5.55

State the recorded pIC50 for this entry: `CC1(C)CC[C@@]23CC[C@]4(C)[C@@](OC2=O)([C@@H]3C1)[C@@H](Br)C[C@@H]1[C@@]2(C)CC/C(=N\O)C(C)(C)[C@@H]2CC[C@]14C`
4.99

###

Assignment: determine reported pIC50 for the given molecules.
system: HepG2; assay: Cytotoxicity in human HepG2 cells assessed as reduction in cell viability incubated for 72 hrs by CCK8 assay; format: functional, cell-based; details: HepG2, 72 h
Quick note: pIC50 means taking -log10 of the concentration in moles per liter.

State the recorded pIC50 for this entry: COC(=O)C(C)NC(=O)[C@]12CC[C@@H](C)[C@H](C)[C@H]1C1=CC[C@@H]3[C@@]4(C)C[C@@H](OC(C)=O)[C@H](OC(C)=O)[C@@](C)(COC(C)=O)[C@@H]4CC[C@@]3(C)[C@]1(C)CC2 (some centres undefined)
6.52

State the recorded pIC50 for this entry: COC(=O)C1CCCN1C(=O)[C@]12CC[C@@H](C)[C@H](C)[C@H]1C1=CC[C@@H]3[C@@]4(C)C[C@@H](OC(C)=O)[C@H](OC(C)=O)[C@@](C)(COC(C)=O)[C@@H]4CC[C@@]3(C)[C@]1(C)CC2 (some centres undefined)
6.05

State the recorded pIC50 for this entry: COC(=O)C(C)NC(=O)[C@]12CC[C@@H](C)[C@H](C)[C@H]1C1=CC[C@@H]3[C@@]4(C)C[C@@H](O)[C@H](O)[C@@](C)(CO)[C@@H]4CC[C@@]3(C)[C@]1(C)CC2 (some centres undefined)
4.69

State the recorded pIC50 for this entry: `CC(=O)OC[C@@]1(C)[C@@H]2CC[C@]3(C)[C@H](CC=C4[C@@H]5[C@@H](C)[C@H](C)CC[C@]5(C(=O)O)CC[C@]43C)[C@@]2(C)C[C@@H](OC(C)=O)[C@@H]1OC(C)=O`
4.99
